Here the recorded EC50 is given for each entry.
biological target: Tau-RD3 (Tau repeat domain 3) (Homo sapiens, UniProt P10636); experiment: Tau disaggregation test by thioflavin-T assay; type: biochemical; details: 35 μM Tau-RD3 aggregated 24 hours, then compound 0-500 μM for 48 hours at 37° C.
Sequence (P10636 623-653 limits assumed): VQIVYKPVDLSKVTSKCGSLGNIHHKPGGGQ

Solved cases (3 shown):
Cc1scnc1C1=C(c2ccc(F)cc2)C(=O)c2cc(OCCOc3ccc4c(c3)OCO4)ccc21 > 500 µM
Cc1ncsc1C1=C(c2cccnc2)C(=O)c2cc(OCCc3ccccc3)ccc21 > 500 µM
Cc1scnc1C1=C(c2ccc(F)cc2)C(=O)c2cc(OCCOc3ccncc3)ccc21 > 500 µM

Please find the next compound below.
stdin: I would be grateful if you could share the reported EC50 for `Cc1scnc1C1=C(c2cccs2)C(=O)c2cc(OCOCc3ccccc3)ccc21` .
stdout: 410 µM

* * *

biological target: Aβ1-42 (Homo sapiens, UniProt P05067); construct: dissolving Aβ1-42 or Tau-RD3 (Tau repeat domain 3) monomer in DMSO; experiment: Amyloid-beta (Aβ) disaggregation test by thioflavin-T assay; type: biochemical; details: 50 μM Aβ1-42 aggregated 24 hours, then compound 0-500 μM for 48 hours at 37° C.
Sequence (P05067 672-713 limits assumed): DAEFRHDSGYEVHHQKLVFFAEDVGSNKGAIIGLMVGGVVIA
recorded-endpoint: EC50 (µM)

Sample records with EC50:
COc1ccc(OCCOc2ccc3c(c2)C(=O)C(c2ccc(F)cc2)=C3c2ncsc2C)cc1OC 4.1
Cc1scnc1C1=C(c2cccs2)C(=O)c2cc(OCCCCc3ccccc3)ccc21 7.5
COc1ccc(C2=C(c3ncsc3C)c3ccc(OCOCc4ccccc4)cc3C2=O)cc1 11.9
CN(C)c1ccc(OCCOc2ccc3c(c2)C(=O)C(c2cccnc2)=C3c2ccoc2)cc1 2.3

P = O=C1C(c2cccnc2)=C(c2ccoc2)c2ccc(OCCOc3ccc(F)c(F)c3)cc21
Q = O=C1C(c2cccnc2)=C(c2ccoc2)c2ccc(OCCOc3ccncc3)cc21
R = O=C1C(c2cccnc2)=C(c2ccoc2)c2ccc(OCCCCc3ccccc3)cc21
S = Cc1scnc1C1=C(c2cccnc2)C(=O)c2cc(OCCCN3CCOCC3)ccc21
stdin: Order field: EC50 | Direction: descending (largest first) Returns: the labels arranged in the requested order.
stdout: S, Q, R, P
(S: 75 µM, Q: 9.1 µM, R: 2.6 µM, P: 1.7 µM)

* * *

biological target: Tau-RD3 (Tau repeat domain 3) (Homo sapiens, UniProt P10636); assay: Tau disaggregation test by thioflavin-T assay; format: biochemical; conditions: 35 μM Tau-RD3 aggregated 24 hours, then compound 0-500 μM for 48 hours at 37° C.
Each entry below lists one item and its recorded EC50 value.

Known results for compounds:
Cc1scnc1C1=C(c2cncnc2)C(=O)c2cc(OCCOc3ccc(F)c(F)c3)ccc21 > 500 µM
Cc1scnc1C1=C(c2ccc(C(F)(F)F)cc2)C(=O)c2cc(OCCOc3ccncc3)ccc21 > 500 µM

Now, please, on to the next compound.
stdin: Look up EC50 for this compound: `Cc1scnc1C1=C(c2cccs2)C(=O)c2cc(OCCOc3ccc(Cl)c(Cl)c3)ccc21`
stdout: > 500 µM

* * *

biological target: Aβ1-42 (Homo sapiens); construct: dissolving Aβ1-42 or Tau-RD3 (Tau repeat domain 3) monomer in DMSO; assay: Amyloid-beta (Aβ) disaggregation test by thioflavin-T assay; type: biochemical; conditions: 50 μM Aβ1-42 aggregated 24 hours, then compound 0-500 μM for 48 hours at 37° C.
recorded-endpoint: EC50 (µM)

compound	target-system	numeric-readout
COc1ccc(OCCOc2ccc3c(c2)C(=O)C(c2ccc(C(F)(F)F)cc2)=C3c2ncsc2C)cc1OC [Compound 33]	Aβ1-42 (Homo sapiens)	10.4
Cc1ncsc1C1=C(c2ccccc2)C(=O)c2cc(OCCCc3ccccc3)ccc21 [Compound 10]	Aβ1-42 (Homo sapiens)	5.6
O=C1C(c2cccnc2)=C(c2cccs2)c2ccc(OCCCc3ccccc3)cc21 [Compound 6]	Aβ1-42 (Homo sapiens)	3.2
O=C1C(c2cccnc2)=C(c2ccoc2)c2ccc(OCOCc3ccccc3)cc21 [Compound 40]	Aβ1-42 (Homo sapiens)	2.1
Cc1scnc1C1=C(c2ccc(C(F)(F)F)cc2)C(=O)c2cc(OCCOc3ccncc3)ccc21 [Compound 35]	Aβ1-42 (Homo sapiens)	1

P = Cc1scnc1C1=C(c2ccc(F)cc2)C(=O)c2cc(OCCOc3ccncc3)ccc21 [Compound 25]
Q = Cc1scnc1C1=C(c2cccs2)C(=O)c2cc(OCCOc3ccc(Cl)c(Cl)c3)ccc21 [Compound 36]
R = Cc1ncsc1C1=C(c2cccs2)C(=O)c2cc(OCCCc3ccccc3)ccc21 [Compound 12]
stdin: Put these in order: smallest EC50 first, largest last. Dear reader, please state the labels in the requested order.
stdout: R, P, Q

I = COc1ccc(OCCOc2ccc3c(c2)C(=O)C(c2ccc(F)cc2)=C3c2ncsc2C)cc1 [Compound 22]
II = Cc1scnc1C1=C(c2cncnc2)C(=O)c2cc(OCCOc3ccc(Cl)c(Cl)c3)ccc21 [Compound 26]
stdin: I'm curious whether I or II has the smaller EC50 number. Which is it? Please indicate the selected item by its label.
stdout: II

A = Cc1ncsc1C1=C(c2cccnc2)C(=O)c2cc(OCCCc3ccncc3)ccc21 [Compound 13]
B = Cc1scnc1C1=C(c2cccs2)C(=O)c2cc(OCCc3ccccc3)ccc21 [Compound 28]
stdin: API: POST /compare with A and B ; response names the item with higher EC50. Bench note: the answer is the label of the chosen record.
stdout: A

Taken from patent US20260256797A1.
